biological target: F508delCFTR (Homo sapiens, UniProt P13569, DEL508-508); construct: expressed in transfected cells; host or cells: CFBE41o- human lung-derived epithelial cells (CFBE41o-F508delCFTR-HRP), doxycycline-inducible; experiment: Cell Surface Expression-Horse Radish Peroxidase (CSE-HRP) assay, test compound with co-corrector; type: cell-based; details: with 2 μM co-corrector
Sequence (P13569 with tags, fused parts or gaps DEL508-508): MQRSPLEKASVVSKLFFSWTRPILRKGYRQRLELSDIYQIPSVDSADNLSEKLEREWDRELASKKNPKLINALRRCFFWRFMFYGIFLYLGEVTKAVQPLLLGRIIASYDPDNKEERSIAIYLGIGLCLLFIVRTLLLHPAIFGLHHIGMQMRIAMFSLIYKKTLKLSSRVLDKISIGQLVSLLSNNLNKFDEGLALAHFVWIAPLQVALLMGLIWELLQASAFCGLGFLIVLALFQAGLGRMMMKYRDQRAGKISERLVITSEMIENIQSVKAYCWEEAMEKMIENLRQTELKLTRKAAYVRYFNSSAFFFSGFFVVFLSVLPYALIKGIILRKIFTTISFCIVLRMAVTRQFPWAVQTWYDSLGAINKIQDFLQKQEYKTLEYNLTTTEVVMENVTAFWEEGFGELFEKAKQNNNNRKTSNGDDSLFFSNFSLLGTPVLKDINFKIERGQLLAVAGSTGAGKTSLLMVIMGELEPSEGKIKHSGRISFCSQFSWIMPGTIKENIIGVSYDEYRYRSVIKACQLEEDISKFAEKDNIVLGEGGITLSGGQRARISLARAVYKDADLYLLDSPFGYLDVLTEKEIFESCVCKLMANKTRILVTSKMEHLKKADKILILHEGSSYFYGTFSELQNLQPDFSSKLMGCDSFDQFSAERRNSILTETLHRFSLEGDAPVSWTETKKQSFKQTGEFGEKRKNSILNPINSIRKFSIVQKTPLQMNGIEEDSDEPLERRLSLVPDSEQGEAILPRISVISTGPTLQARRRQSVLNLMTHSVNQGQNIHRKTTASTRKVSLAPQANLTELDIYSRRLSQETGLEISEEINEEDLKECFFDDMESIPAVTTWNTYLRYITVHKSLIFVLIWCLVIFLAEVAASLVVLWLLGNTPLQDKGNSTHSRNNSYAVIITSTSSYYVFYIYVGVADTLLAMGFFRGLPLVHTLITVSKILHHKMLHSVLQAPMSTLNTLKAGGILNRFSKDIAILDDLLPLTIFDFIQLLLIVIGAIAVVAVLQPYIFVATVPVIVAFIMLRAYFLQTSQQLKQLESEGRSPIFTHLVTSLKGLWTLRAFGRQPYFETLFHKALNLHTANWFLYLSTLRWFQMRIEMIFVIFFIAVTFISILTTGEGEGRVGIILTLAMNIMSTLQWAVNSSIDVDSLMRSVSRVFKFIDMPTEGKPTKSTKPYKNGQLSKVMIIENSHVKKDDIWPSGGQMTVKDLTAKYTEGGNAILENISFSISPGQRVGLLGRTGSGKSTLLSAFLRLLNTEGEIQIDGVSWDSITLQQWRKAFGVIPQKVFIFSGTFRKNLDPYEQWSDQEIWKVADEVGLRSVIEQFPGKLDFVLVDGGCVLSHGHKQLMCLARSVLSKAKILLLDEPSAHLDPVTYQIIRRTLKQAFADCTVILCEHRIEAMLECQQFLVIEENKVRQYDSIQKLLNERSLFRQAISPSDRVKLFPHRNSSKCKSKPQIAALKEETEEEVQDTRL
experimental.endpoint: EC50

compound | result
COc1ccc(Br)c2c1C(C(=O)NS(=O)(=O)c1cccc3cccnc13)CC2 (centres unmarked) [II-116] | 3 to 10 µM
O=C(NS(=O)(=O)c1cccc(Cl)c1)C1CCc2c(Cl)cccc21 (centres unmarked) [II-26] | 3 to 10 µM
COc1ccc(Br)c2c1C(C(=O)NS(=O)(=O)c1cccc3ncccc13)CC2 (centres unmarked) [Example I-44] | < 3 µM
CCC1(C(=O)NS(=O)(=O)c2cccc(Cl)c2F)CCc2c(Cl)cccc21 (centres unmarked) [II-106] | < 3 µM
COc1cccc2c1CCC2C(=O)NS(=O)(=O)c1cc([N+](=O)[O-])ccc1Cl (centres unmarked) [III-40] | ≥ 10 µM

* * *

target: F508delCFTR (Homo sapiens, UniProt P13569, DEL508-508); construct: expressed in transfected cells; host or cells: CFBE41o- human lung-derived epithelial cells (CFBE41o-F508delCFTR-HRP), doxycycline-inducible; test: Cell Surface Expression-Horse Radish Peroxidase (CSE-HRP) assay, test compound without co-corrector; type: cell-based; details: maximum at any tested concentration, normalized to positive control, without co-corrector;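 also: percent of on-plate 2 µM positive control corrector response over DMSO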
experimental.endpoint: Emax

molecule | experimental.endpoint | result
COc1ncc(Br)c2c1[C@@H](C(=O)NS(=O)(=O)c1cccc3ccccc13)CCC2 [Example I-115] | Emax | ≥ 150%
COc1cccc2c1CCC2C(=O)NS(=O)(=O)c1ccc(Cl)cc1Cl (stereo not shown) [III-37] | Emax | < 50%
COc1cccc2c1CCC2C(=O)NS(=O)(=O)c1ccccc1[N+](=O)[O-] (stereo not shown) [II-31] | Emax | < 50%
Cc1ccccc1S(=O)(=O)NC(=O)C1CCc2c(C3CCC3)cccc21 (stereo not shown) [II-35] | Emax | 50 to 150%
COCCOc1ccc(Br)c2c1CCCC2C(=O)NS(=O)(=O)c1cccc2ccccc12 (stereo not shown) [Example I-45] | Emax | ≥ 150%
COc1ccc(C(F)(F)F)c2c1[C@@H](C(=O)NS(=O)(=O)c1cccc3ncccc13)CC2 [Example I-95] | Emax | ≥ 150%
O=C(NS(=O)(=O)c1cccc2ccccc12)C1CCCc2c(O)ccc(Br)c21 (stereo not shown) [II-50] | Emax | < 50%
COc1cccc2c1CCC2C(=O)NS(=O)(=O)c1ccccc1Cl (stereo not shown) [II-30] | Emax | < 50%
CCCCCC(=O)c1ccc(S(=O)(=O)NC(=O)C2CCc3c(OC)cccc32)cc1 (stereo not shown) [III-54] | Emax | < 50%
COc1cccc2c1CCC2C(=O)NS(=O)(=O)Cc1ccccc1 (stereo not shown) [III-21] | Emax | < 50%
COc1ccc(C2CCC2)c2c1[C@H](C(=O)NS(=O)(=O)c1cccc3ccccc13)C2 (single isomer, unassigned) [Example I-107] | Emax | ≥ 150%
CCC1(C(=O)NS(=O)(=O)c2cccc3nsnc23)CCc2c(Cl)cccc21 (stereo not shown) [II-67] | Emax | < 50%
CCC1(C(=O)NS(=O)(=O)c2cccc3c(Cl)cccc23)CCc2c(Cl)cccc21 (stereo not shown) [Example I-39] | Emax | 50 to 150%
CCC1(C(=O)NS(=O)(=O)c2ccccc2OCC(F)F)CCc2c(Cl)cccc21 (stereo not shown) [II-104] | Emax | < 50%
COc1ccc(OC)c2c1CC[C@H]2C(=O)NS(=O)(=O)c1cccc2ncccc12 [Example I-92] | Emax | ≥ 150%
COc1cccc2c1[C@@H](C(=O)NS(=O)(=O)c1cccc3ncccc13)CC2(C)C [Example I-153] | Emax | ≥ 150%
COc1ccc(Br)c2c1CCC2C(=O)NS(=O)(=O)c1ccccc1C (stereo not shown) [II-41] | Emax | 50 to 150%
COc1ccc(C2CCC2)c2c1[C@@H](C(=O)NS(=O)(=O)c1cccc3ncccc13)CC2 [Example I-104] | Emax | ≥ 150%
COc1ccc2c(c1OC)CCC2C(=O)NS(=O)(=O)c1ccccc1C (stereo not shown) [III-72] | Emax | < 50%
Cc1ccccc1S(=O)(=O)NC(=O)C1CCc2c(-c3ccc(F)nc3)cccc21 (stereo not shown) [III-89] | Emax | < 50%
CC1(C(=O)NS(=O)(=O)c2cccc3ccccc23)CCc2c(Cl)cccc21 (stereo not shown) [Example I-38] | Emax | ≥ 150%
COc1ccc(Br)c2c1C(C(=O)NS(=O)(=O)c1cccc3ncccc13)CC2 (stereo not shown) [Example I-44] | Emax | ≥ 150%
CCC1(C(=O)NS(=O)(=O)c2cccc3ccccc23)Cc2cccc(OC)c21 (stereo not shown) [II-118] | Emax | ≥ 150%
COc1cccc2c1CCC2C(=O)NS(=O)(=O)c1cccc(Cl)c1F (stereo not shown) [III-70] | Emax | < 50%
CCC1(C(=O)NS(=O)(=O)c2ccc3ccccc3c2)CCc2c(Cl)cccc21 (stereo not shown) [II-65] | Emax | < 50%
CCOC(=O)COc1ccc(Br)c2c1CCCC2C(=O)NS(=O)(=O)c1cccc2ccccc12 (stereo not shown) [II-87] | Emax | < 50%
COc1ccc(Cl)c2c1CC[C@@H]2C(=O)NS(=O)(=O)c1cccc2ccccc12 (single isomer, unassigned) [Example I-87] | Emax | 50 to 150%
Cc1ccccc1S(=O)(=O)NC(=O)C1CCCc2cccc(Cl)c21 (stereo not shown) [II-10] | Emax | 50 to 150%
O=C(NS(=O)(=O)c1cccc(Cl)c1)C1CCc2c(Cl)cccc21 (stereo not shown) [II-26] | Emax | < 50%
COc1ccc(C2CCC2)c2c1[C@H](C(=O)NS(=O)(=O)c1cccc3ncc(C)n13)C2 [Example I-155] | Emax | ≥ 150%
CCC1(C(=O)NS(=O)(=O)c2cccc(Cl)c2F)CCc2c(Cl)cccc21 (stereo not shown) [II-106] | Emax | < 50%
COc1ccc(C2CCC2)c2c1[C@@H](C(=O)NS(=O)(=O)c1cccc3c1CCCN3)CC2 [Example I-122] | Emax | ≥ 150%
CCC1(C(=O)NS(=O)(=O)c2cccc(N3CCC(F)(F)C3)c2C)CCc2c(Cl)cccc21 (stereo not shown) [II-127] | Emax | 50 to 150%
COc1ccc(Cl)c2c1C(C(=O)NS(=O)(=O)c1cccc3ccccc13)CC2 (stereo not shown) [Example I-59] | Emax | ≥ 150%

* * *

biological target: F508delCFTR (Homo sapiens, UniProt P13569, DEL508-508); construct: expressed in transfected cells; host or cells: CFBE41o- human lung-derived epithelial cells (CFBE41o-F508delCFTR-HRP), doxycycline-inducible; test: Cell Surface Expression-Horse Radish Peroxidase (CSE-HRP) assay, test compound without co-corrector; format: cell-based; settings: maximum at any tested concentration, normalized to positive control, without co-corrector;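 also: percent of on-plate 2 µM positive control corrector response over DMSO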
Emax values, listed per item

compound | Emax
COc1cccc2c1CCC2C(=O)NS(=O)(=O)c1ccccc1Br (stereo not shown) | < 50%
Cc1ccccc1S(=O)(=O)NC(=O)[C@H]1CCCc2ccccc21 | < 50%
COc1cccc2c1CCCC2C(=O)NS(=O)(=O)c1cccc2ccccc12 (stereo not shown) | ≥ 150%
COc1cccc2c1CCC2C(=O)NS(=O)(=O)c1cc(C(=O)Nc2c(C)cccc2C)c(O)cc1Cl (stereo not shown) | < 50%
COc1ccc2c(c1)CCC2C(=O)NS(=O)(=O)c1ccccc1C (stereo not shown) | < 50%
COc1cccc2c1CCC2C(=O)NS(=O)(=O)c1cc(-c2nc3c([nH]2)c(=O)n(C)c(=O)n3C)ccc1Cl (stereo not shown) | < 50%
COc1ccc(CC(C)C)c2c1C(C(=O)NS(=O)(=O)c1cccc3ncccc13)CC2 (stereo not shown) | ≥ 150%
CCC1(C(=O)NS(=O)(=O)c2cccc3cnn(C)c23)CCc2c(Cl)cccc21 (stereo not shown) | ≥ 150%
CCc1ccccc1S(=O)(=O)NC(=O)C1CCc2c(OC)cccc21 (stereo not shown) | < 50%
O=C(NS(=O)(=O)c1cccc2ccccc12)C1CCCc2c(OC3CCCC3)ccc(Br)c21 (stereo not shown) | 50 to 150%
COc1ccc(C2CCC2)c2c1[C@H](C(=O)NS(=O)(=O)c1cccc3ncccc13)C2 (single isomer, unassigned) | ≥ 150%
CCC1(C(=O)NS(=O)(=O)c2cccc3c2OC(F)(F)O3)CCc2c(Cl)cccc21 (stereo not shown) | < 50%
CCC1(C(=O)NS(=O)(=O)c2ccccc2OCCOC)CCc2c(Cl)cccc21 (stereo not shown) | < 50%
COc1cccc2c1CCC2C(=O)NS(=O)(=O)c1ccc(F)cc1F (stereo not shown) | < 50%
COc1ccc(CC(C)C)c2c1CCCC2C(=O)NS(=O)(=O)c1cccc2ccccc12 (stereo not shown) | ≥ 150%
CC1(C(=O)NS(=O)(=O)c2cccc3ccccc23)CCc2cccc(C3CCC3)c21 (stereo not shown) | ≥ 150%
COCCS(=O)(=O)NC(=O)C1CCc2c(OC)cccc21 (stereo not shown) | < 50%
COc1cccc2c1CCC2C(=O)NS(=O)(=O)c1cc([N+](=O)[O-])ccc1C (stereo not shown) | < 50%
COc1ccc(Br)c2c1[C@H](C(=O)NS(=O)(=O)c1cccc3ccccc13)CC2 | ≥ 150%
COc1ccc(C2CCC2)c2c1C(C(=O)NS(=O)(=O)c1cccc3ncn(C)c13)CC2 (stereo not shown) | ≥ 150%
COc1ccc2c(c1)[C@](C)(C(=O)NS(=O)(=O)c1cccc3ccccc13)CC2 | ≥ 150%
O=C(C1CCCc2c(OCc3ccccc3)ccc(Br)c21)N(Cc1ccccc1)S(=O)(=O)c1cccc2ccccc12 (stereo not shown) | < 50%
COc1ccc(C2CCC2)c2c1C(C(=O)NS(=O)(=O)c1cccc3ccccc13)CC2 (stereo not shown) | ≥ 150%
COc1cccc2c1CCC2C(=O)NS(=O)(=O)c1ccccn1 (stereo not shown) | < 50%
COc1cccc2c1CCC2C(=O)NS(=O)(=O)c1ccccc1F (stereo not shown) | < 50%
CCC1(C(=O)NS(=O)(=O)c2cccc3cnccc23)CCc2c(Cl)cccc21 (stereo not shown) | ≥ 150%
CCC1(C(=O)NS(=O)(=O)c2cccc3cccc(O)c23)CCc2c(Cl)cccc21 (stereo not shown) | 50 to 150%
COc1ccc(C2CCC2)c2c1[C@H](C(=O)NS(=O)(=O)c1cccc3nc(C)ccc13)CC2 | ≥ 150%
COc1cccc2c1CCC2C(=O)NS(=O)(=O)c1cccc(C#N)c1 (stereo not shown) | < 50%
COc1ccc(Br)c2c1[C@@H](C(=O)NS(=O)(=O)c1cccc3ccccc13)CC2 | 50 to 150%
COc1cccc2c1CCC2C(=O)NS(=O)(=O)c1c(C)nn(C)c1Cl (stereo not shown) | < 50%
COc1ccc(C(C)(C)O)c2c1C(C(=O)NS(=O)(=O)c1cccc3ccccc13)CC2 (stereo not shown) | 50 to 150%
COc1ccc(C2CCC2)c2c1C(C(=O)NS(=O)(=O)c1cccc3cnn(C)c13)C2 (stereo not shown) | ≥ 150%
COc1ccc(C(F)(F)F)c2c1[C@H](C(=O)NS(=O)(=O)c1cccc3ncccc13)CC2 | ≥ 150%

Where do the numbers come from? From patent US20180244611A1.
